test system: L1210 leukemia ip in BDF1 mice, survival T/C; assay: NCI In Vivo Anticancer Drug Screen. Data for tumor model L1210 Leukemia (intraperitoneal) in B6D2F1 (BDF1) mice; settings: endpoint: mean survival time; dose: 400.0 mg/kg/injection; schedule: Q04DX002 (ip); vehicle: saline; higher = longer survival
Inconclusive results and toxic doses are left out.
Reported values of T/C for individual entries

The cases that follow already have their T/C on record.
# compound, tested.system, T/C
data = [
    ("CC(=O)OCC1OC2OC(C)(C)OC2C1NC(=O)N(C)C(C)=O (centres undefined)", "L1210 leukemia ip in BDF1 mice, survival T/C", "90 % of control"),
    ("CCCCCCCC(=O)N1CCCC(C)C1 (centres undefined)", "L1210 leukemia ip in BDF1 mice, survival T/C", "114 % of control"),
    ("CCCC/C=C1\\CCCC(C)C1 (centres undefined)", "L1210 leukemia ip in BDF1 mice, survival T/C", "97 % of control"),
    ("C/C(=N/N(C)C)c1ccccc1", "L1210 leukemia ip in BDF1 mice, survival T/C", "108 % of control"),
    ("NC(CCS)C(=O)O (centres undefined)", "L1210 leukemia ip in BDF1 mice, survival T/C", "96 % of control"),
]

What value of T/C has been recorded for this entry: `CO/N=C(\C)CSS(=O)(=O)OC` 86 % of control

What value of T/C has been recorded for this entry: `CN(C)C(=O)OC(C)(C)C` 97 % of control

What value of T/C has been recorded for this entry: `O=S(=O)(O)Cc1ccc(Cl)cc1Cl` 116 % of control

What value of T/C has been recorded for this entry: `NS(=O)(=O)c1ccccc1` 109 % of control
